Tested on: SNB-75 CNS
Protocol Text: NCI tumour cell line growth inhibition, 48 h; in the data active means GI50 below about 0.43 µM; inactive means the rest
Reply using exactly one outcome from yes (1) = active, no (0) = inactive

Examples with answers:
Compound	Discrete Label
O=C(c1ccccc1)c1nn(-c2ccccc2)c2nc3nc(-c4ccccc4)cc(=O)n3nc12	no (0)
CCN(Cc1cccc(F)c1F)c1ccc(CO)c(Cl)c1	no (0)
CC(=O)c1cccc(NC(=O)c2ccc(NC3=C(Cl)C(=O)N(Cc4ccccc4)C3=O)cc2)c1	no (0)
Cc1cc(O)cc(C)c1/C=C/c1cncc(C(=O)OC(C)(C)C)c1	no (0)

stdin: Hello, I am checking results. What call was entered for CCCCCSC1C2C(=O)C(Br)=CC13CCNc1c(O)c4c5c(c13)=[N+]2CCC=5C=N4 (centres undefined) ?
stdout: no (0)

stdin: Now the same for FC(F)(F)c1[nH]ncc1-c1nc2ccc3[nH]ncc3c2c2c1CCCC2
stdout: no (0)

stdin: Cool, now CCCCN1CCN(c2ccc3nc(-c4ccc5nc(-c6ccc(OCC)c(OCC)c6)[nH]c5c4)[nH]c3c2)CC1
stdout: no (0)

stdin: How about CCOC(=O)c1nc2cc(C(F)(F)F)ccc2[n+]([O-])c1C ?
stdout: no (0)

stdin: Check CC12CCC(O)CC1=CCC1C2CCC2(C)C(c3cccnc3)=CCC12 (centres undefined) too.
stdout: no (0)

stdin: And then COc1ccc2[nH]c(O)c(/C=c3/ccc4c(c3)N=C(c3ccc(F)cc3)N=4)c2c1 , what is it?
stdout: no (0)

stdin: CC1(C)N=C(N)N=C(N)N1c1ccc(Cl)c(Cl)c1 ?
stdout: no (0)

stdin: Now consider O=C(Nc1cccc(-n2cc(-c3ccncc3)c(-c3ccc(O)c(Cl)c3)n2)c1)c1ccc(Cl)c(Cl)c1 and answer again.
stdout: no (0)

stdin: Try the compound Cc1cc2c(cc1C)[n+](Cc1ccc3ccccc3n1)cn2Cc1ccc2ccccc2n1
stdout: no (0)

stdin: Continue with COc1ccc(C#CC2=C(c3cc(OC)c(OC)c(OC)c3)C(=O)OC2)cc1
stdout: no (0)

stdin: Same question for COC(=O)/C(=C\c1c(-c2ccccc2)[nH]c2ccccc12)S(C)(=O)=O please.
stdout: no (0)

stdin: Next compound: CNCCCn1c2c(c3ccc(F)cc3c1=O)C(=O)c1cc(OC)cnc1-2
stdout: yes (1)

stdin: And what about the compound Cn1c2ccccc2c2nnc(NNCc3ccccn3)nc21 ?
stdout: no (0)

stdin: Follow-up entry: C[C@]12CC[C@@H]3c4ccc(O)cc4CC[C@H]3[C@@H]1CC[C@@H]2NS(=O)(=O)c1ccc2ccccc2c1
stdout: no (0)

stdin: One more compound: COC(=O)[C@@H](OC)[C@@H]1Cc2cc3cc(OC4CC(OC5CC(O)C(O)C(C)O5)C(O)C(C)O4)c(C)c(O)c3c(O)c2C(=O)[C@H]1OC1CC(OC2CC(OC3CC(C)(O)C(O)C(C)O3)C(O)C(C)O2)C(O)C(C)O1 (some centres undefined)
stdout: yes (1)
